Cited source for all entries: patent US20220185900A1

Quick reference: koff of the listed items.
assayed-target: T1, hRET.mmh (human, UniProt P07949 29-635, biotinylated in the ELISA of Example 4 (biot-hRET.mmh); not in the SPR of Example 3)
T1 construct: also called biot-hRET.mmh; soluble monomeric human RET
procedure-summary: SPR Biacore T200, mAb capture, 25 C
Entry rule: numbers only, all in s⁻¹.

# count of solved cases: 2
# binder, quantitative-result
records = [
    ("H4H8076P (antibody, human IgG4, V domains shown, human IgG4 Fc (H4H prefix)) VH: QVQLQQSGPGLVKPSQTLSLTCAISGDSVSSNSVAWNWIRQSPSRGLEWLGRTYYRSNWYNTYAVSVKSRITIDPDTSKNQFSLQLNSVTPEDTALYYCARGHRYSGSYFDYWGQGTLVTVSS VL: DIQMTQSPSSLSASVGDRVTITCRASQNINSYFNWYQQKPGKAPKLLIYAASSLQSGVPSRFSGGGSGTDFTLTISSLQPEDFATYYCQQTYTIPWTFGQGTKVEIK", 0.000338),
    ("H4H8056P (antibody, human IgG4, V domains shown, human IgG4 Fc (H4H prefix)) VH: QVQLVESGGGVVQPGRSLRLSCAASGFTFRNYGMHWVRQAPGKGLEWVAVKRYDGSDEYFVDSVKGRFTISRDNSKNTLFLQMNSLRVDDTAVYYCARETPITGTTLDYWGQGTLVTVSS VL: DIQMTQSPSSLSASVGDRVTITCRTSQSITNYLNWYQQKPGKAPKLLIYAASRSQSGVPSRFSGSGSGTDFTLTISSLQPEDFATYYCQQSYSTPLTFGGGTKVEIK", 0.000539),
]

What value of koff has been recorded for this entry: H4H8066P (antibody, human IgG4, V domains shown, human IgG4 Fc (H4H prefix)) VH: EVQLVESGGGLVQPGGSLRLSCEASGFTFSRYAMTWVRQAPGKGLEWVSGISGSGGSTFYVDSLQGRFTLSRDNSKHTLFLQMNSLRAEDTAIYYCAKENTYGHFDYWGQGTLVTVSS VL: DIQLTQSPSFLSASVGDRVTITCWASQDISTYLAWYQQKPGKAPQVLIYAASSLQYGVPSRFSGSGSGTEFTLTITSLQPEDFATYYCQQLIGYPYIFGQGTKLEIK 0.000257
